Recorded TGI values for a group of molecules are listed next.
- Tested on: OVCAR-3 ovarian
- Measurement Protocol: NCI tumour cell line growth inhibition, 48 h

- Molecule: "Brc1ccc2[nH]cc([C@H]3CN[C@@H](c4c[nH]c5ccc(Br)cc45)CN3)c2c1"
  TGI: "3.8 µM"

# input Tell me the measured TGI of O=C(Nc1ccc(Cl)cc1)Nc1ccc(Oc2nncc3ccccc23)cc1 , please.
# output 1.15 µM

# input What do you get for Cn1c(=O)c2c3ccccc3c(C(=O)c3ccccc3)n2c2ccccc21 ?
# output > 100 µM

# input Query CC(C)CCC[C@@H](C)[C@H]1CCC2C3=CCn4c(=O)ccc(=O)n4C3CC[C@@]21C (stereo not given in full) next
# output 2 µM

# input Now give it for Cc1cn(CCCCCCOC(=O)NC(CCCN=C(N)N)C(=O)O)c(=O)[nH]c1=O (stereo not given) too.
# output > 100 µM

# input Again, but for Cc1cc(C)c(C2CC(O)C(CO)O2)cc1C (stereo not given)
# output > 100 µM

# input Further, for C[C@]12C=CC(=O)C=C1[C@@H](F)C[C@H]1[C@@H]3CC[C@](O)(C(=O)CO)[C@@]3(C)C[C@H](O)[C@@]12F ?
# output > 100 µM

# input Follow-up entry: CCOC(=O)C1N(S(=O)(=O)c2ccc(C)cc2)CCC12c1ccccc1NC2c1ccc(OC)c(OC)c1 (stereo not given)
# output > 100 µM

# input Next molecule: CN(C)C=Nc1ccc2nonc2c1
# output > 100 µM

# input Can you handle COc1ccc(-c2nc3ccccc3c(=O)[nH]2)c(OC)c1 next?
# output > 100 µM

Reference for the values: PubChem BioAssay (NCI)
